experiment: inhibitors of HIV fusion peptide binding, primary screen, biochemical, uHTS, fluorescence dequenching (AID 1986); conditions: cell-free peptide binding, 30 min, at 20 µM, active compounds read high
About 890 (0.31%) of roughly 290,000 compounds were called active. The list comes from a sample in which actives are over-represented; it also holds close analogues and randomly drawn compounds.
In this section we review reported inhibition values for a set of compounds.
reported-endpoint: inhibition (%)

{"compound": "O=C(Nc1ccc(Cl)cc1F)C1CCN(S(=O)(=O)c2cccnc2)CC1", "number": -1.9}
{"compound": "N[C@@H](Cc1cc(I)c(Oc2ccc(O)c(I)c2)c(I)c1)C(=O)O", "number": 30.3}
{"compound": "COC(=O)c1sc2ncn(N)c(=O)c2c1C", "number": -0.5}
{"compound": "O=C(O)Cc1cc(I)c(Oc2ccc(O)c(I)c2)c(I)c1", "number": 68.9}
{"compound": "O=C(c1ccccc1)N1N=C(c2ccccc2)CC1c1ccccc1 (stereo unspecified)", "number": 1.1}
{"compound": "O=S1(=O)C=CC(c2ccccc2)C1 (stereo unspecified)", "number": 0.2}

----------
experiment: inhibitors of HIV fusion peptide binding, primary screen, biochemical, uHTS, fluorescence dequenching (AID 1986); conditions: cell-free peptide binding, 30 min, at 20 µM, active compounds read high
Among all 290,000 compounds or so, about 890 (0.31%) were called active. This is one part of a sample in which actives are shown more often than they occur.
// label = Met if inhibition is not less than 30%, otherwise Not met

{"molecule": "COc1cc(/C=C2/C(=O)NN(c3ccc(Cl)c(Cl)c3)C2=O)cc([N+](=O)[O-])c1O", "discrete-label": "Met"}
{"molecule": "COc1cc(CNCCc2ccc(S(N)(=O)=O)cc2)ccc1OCC(=O)NC(C)(C)C", "discrete-label": "Not met"}
{"molecule": "Cc1cccn2c(=O)c3cc(C(=O)NCc4cccnc4)c(=N)n(C)c3nc12", "discrete-label": "Not met"}
{"molecule": "Cc1ccccc1N=Nc1ccc(O)c2ncccc12", "discrete-label": "Not met"}
{"molecule": "Cc1cc(/C=C2/C(=N)N3C(=NC2=O)SN=C3S(C)(=O)=O)c(C)n1-c1ccc(F)cc1", "discrete-label": "Met"}
{"molecule": "CC1CCCN(Cc2c(O)ccc3c2O/C(=C\\c2ccco2)C3=O)C1 (stereo not given)", "discrete-label": "Met"}
{"molecule": "COc1ccccc1NC(=O)N(Cc1cc2cc(OC)c(OC)cc2[nH]c1=O)CC1CCCO1 (stereo not given)", "discrete-label": "Not met"}
{"molecule": "COCCN(CCOC)Cc1c(O)ccc2c1O/C(=C\\c1ccco1)C2=O", "discrete-label": "Met"}
{"molecule": "NS(=O)(=O)c1ccc(N=Nc2ccc(O)c3ncccc23)cc1", "discrete-label": "Not met"}
{"molecule": "COc1ccccc1-n1c(C)cc(/C=C2/C(=N)N3C(=NC2=O)SN=C3S(C)(=O)=O)c1C", "discrete-label": "Met"}
{"molecule": "O=C(O)CCCN1C(=O)/C(=C/c2cn(-c3ccccc3)nc2-c2cccs2)SC1=S", "discrete-label": "Met"}
{"molecule": "COc1cc(/C=C2/C(=O)NN(c3ccc(Cl)cc3)C2=O)cc(OC)c1O", "discrete-label": "Met"}
{"molecule": "CCOc1ccc(-n2c(C)cc(/C=C3/C(=N)N4C(=NC3=O)SN=C4S(C)(=O)=O)c2C)cc1", "discrete-label": "Met"}
{"molecule": "O=S(=O)(O)c1cccc2c(N=Nc3ccc(O)c4ncccc34)cccc12", "discrete-label": "Met"}
{"molecule": "Cc1ccc(-c2nn(-c3ccccc3)cc2/C=C/C(=O)O)o1", "discrete-label": "Not met"}
{"molecule": "Cc1cc(C)c(NC(=O)CSc2nc3ncc(Cl)cc3[nH]2)c(C)c1", "discrete-label": "Not met"}
{"molecule": "CC(C)(C)c1ccc(/C=C2\\Oc3c(ccc(O)c3CN3CCN(CCO)CC3)C2=O)cc1", "discrete-label": "Not met"}
{"molecule": "O=C(O[C@@H]1OC2COC(=O)c3cc(O)c(O)c(O)c3-c3c(cc(O)c(O)c3O)C(=O)O[C@@H]([C@H]1O)[C@@H]2O)c1cc(O)c(O)c(O)c1", "discrete-label": "Met"}
{"molecule": "COc1cc(/C=C2\\C(=O)NN(c3ccccc3)C2=O)cc([N+](=O)[O-])c1O", "discrete-label": "Met"}
{"molecule": "CCOc1cc(/C=C2/C(=O)NN(c3cccc(Cl)c3)C2=O)ccc1O", "discrete-label": "Met"}
{"molecule": "Cc1c(C(=O)O)sc2nc(/C=C/c3cccc(F)c3)[nH]c(=O)c12", "discrete-label": "Not met"}
{"molecule": "Cc1c(C(=O)O)sc2nc(/C=C/c3cccc(O)c3)[nH]c(=O)c12", "discrete-label": "Not met"}
{"molecule": "CN1CCN(C(=O)CCN2C(=O)c3ccccc3C2=O)CC1", "discrete-label": "Not met"}
{"molecule": "Cc1cc(NC(=S)N(Cc2ccc(Br)cc2)Cc2ccc(C(=O)O)cc2)ccc1Cl", "discrete-label": "Met"}
{"molecule": "COc1cc(/C=C2/C(=O)NN(c3cccc(Cl)c3)C2=O)cc(Br)c1O", "discrete-label": "Met"}
{"molecule": "Cc1ccc(N2CC(C(=O)Nc3nnc(SCC(=O)NCC4CCCO4)s3)CC2=O)cc1 (stereo not given)", "discrete-label": "Not met"}
{"molecule": "COc1cccc(-n2c(C)cc(/C=C3/C(=N)N4C(=NC3=O)SN=C4S(C)(=O)=O)c2C)c1", "discrete-label": "Met"}
{"molecule": "Cc1ccc(NC(=S)N(Cc2ccc(Br)cc2)Cc2ccc(C(=O)O)cc2)cc1C", "discrete-label": "Met"}
{"molecule": "CCOC(=O)C1CCN(C(=O)c2cc3cc4ccc(OC)cc4nc3o2)CC1", "discrete-label": "Not met"}
{"molecule": "Cc1ccc(/C=C2\\Oc3c(ccc(O)c3CN3CCN(C)CC3)C2=O)cc1", "discrete-label": "Met"}
{"molecule": "Cc1nn(-c2ccccc2)c(Cl)c1/C=C1\\SC(=S)N(CCCCCC(=O)O)C1=O", "discrete-label": "Met"}
{"molecule": "O=C(O)CCN1C(=O)/C(=C/c2cn(-c3ccccc3)nc2-c2cccs2)SC1=S", "discrete-label": "Met"}
{"molecule": "COc1ccc(-c2nn(-c3ccccc3)cc2/C=C2/SC(=S)N(CCC(=O)O)C2=O)cc1", "discrete-label": "Not met"}
{"molecule": "Cc1cc(NC(=S)N(Cc2ccc(Cl)cc2)Cc2ccc(C(=O)O)cc2)ccc1Cl", "discrete-label": "Met"}
{"molecule": "CC1=CC2=NC(=O)/C(=C\\c3cc(C)n(-c4ccccc4F)c3C)C(=N)N2O1", "discrete-label": "Not met"}
{"molecule": "CCOC(=O)c1cc2c(=O)n3cccc(C)c3nc2n(C)c1=N", "discrete-label": "Met"}
{"molecule": "COc1ccc(OC)c(NC(=O)CN(C)S(=O)(=O)c2ccc3nc(C)sc3c2)c1", "discrete-label": "Not met"}
{"molecule": "CC(C)(C)C(=O)Nc1cccc(-c2nc3ccccc3[nH]2)c1", "discrete-label": "Not met"}
